The measurements presented in this section are drawn from ChEMBL document CHEMBL1134879.

Kindly supply the reported IC50 values for the records listed here.
# EXPERIMENTAL TARGET: 4-hydroxyphenylpyruvate dioxygenase (Sus scrofa, UniProt Q02110)
# Sequence (Q02110 whole entry): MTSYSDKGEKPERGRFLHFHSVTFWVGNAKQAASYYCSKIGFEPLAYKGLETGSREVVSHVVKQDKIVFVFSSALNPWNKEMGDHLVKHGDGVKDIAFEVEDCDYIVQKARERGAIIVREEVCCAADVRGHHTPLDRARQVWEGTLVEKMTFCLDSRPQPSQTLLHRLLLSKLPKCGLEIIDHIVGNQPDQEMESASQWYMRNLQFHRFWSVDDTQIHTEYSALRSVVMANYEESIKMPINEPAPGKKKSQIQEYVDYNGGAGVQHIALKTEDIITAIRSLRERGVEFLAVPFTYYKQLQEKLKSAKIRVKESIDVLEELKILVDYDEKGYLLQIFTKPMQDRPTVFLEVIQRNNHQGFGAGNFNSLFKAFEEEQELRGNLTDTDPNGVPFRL
# MEASUREMENT NOTES: Concentration required to achieve 50% inhibition against 4-hydroxyphenylpyruvate dioxygenase from pig liver; (observed value)
Give bare numbers, in µM.

CC(=O)C1=C(O)CCCC1=O ... 11.2

// for each molecule in input: emit IC50
1. O=C1CCCC(O)=C1C(=O)C1CC1
2. O=C1CCCC(O)=C1C(=O)C1CCCCC1
3. CC(C)C(=O)C1=C(O)CCCC1=O
4. CCC(=O)C1=C(O)CCCC1=O

Ans:
6.03
363
93.3
17.8
